# systemUnderTest: Cruzipain (Trypanosoma cruzi)
# protocolText: Inhibitors of Cruzain: Benzimidazole Series - Round 1
# measurementConditions: purified cruzain, Z-FR-AMC fluorogenic cleavage; series mostly up to 57.1 µM
Inconclusive results are not listed. Activity calls are given as the source filed them. The call rests on the fitted dose curve; in most records, active means well fitted inhibition curve with a large enough effect; inconclusive means small, poorly fitted or top-dose-only effect; inactive means flat fitted curve, though single readings scatter.
property: Potency

Below are worked cases with known answers.
Cc1ccc(C)c(OCCn2c(CCNC(=O)COc3ccc(F)cc3)nc3ccccc32)c1 = 9.13 µM (active)
Cc1ccc(C)c(OCCn2c(CCNC(=O)C3CCCCC3)nc3ccccc32)c1 = 1.62 µM (active)
O=C(COc1ccccc1Br)NCCc1nc2ccccc2[nH]1 = 3.63 µM (active)
O=C(Cc1nnc(-c2nc3ccccc3[nH]2)o1)Nc1cc(C(F)(F)F)ccc1Cl = inactive
O=C(NCc1nnc(-c2nc3ccccc3[nH]2)o1)C1CCCCC1 = inactive

Lab book: Potency of O=C(NNC(=O)c1nc2ccccc2[nH]1)OCc1ccccc1 noted as inactive

The compound O=C(NCCc1nc2ccccc2n1CCO)C1CCCCC1 showed Potency equal to 6.46 µM (active)
